bioavailability for assorted compounds
- measurement.protocol: Pharmacokinetics assay in rats after intragastrical administration
- Format: in vivo
- assay.setup: both sexes, Sprague-Dawley (SD), rat, plasma, po, 2 mg/kg, read-out: Bioavailability F
Please answer using the number first and the unit second.

1) Cc1cc(F)ccc1Oc1cc(C(F)(F)F)c(Cl)cc1C(=O)Nc1cn[nH]c(=O)c1 : 149%
2) COc1cc(F)ccc1Oc1cc(C(F)(F)F)c(Cl)cc1C(=O)Nc1cn[nH]c(=O)c1 : 98%
3) O=C(Nc1cn[nH]c(=O)c1)c1cc(Cl)c(C(F)(F)F)cc1Oc1ccc(F)cc1OC(F)(F)F : 94%
4) [2H]C([2H])([2H])Oc1cc(F)ccc1Oc1cc(C(F)(F)F)c(Cl)cc1C(=O)Nc1cn[nH]c(=O)c1 : 107%

Input O=C(Nc1cn[nH]c(=O)c1)c1cc(Cl)c(C(F)(F)F)cc1Oc1ccc(F)cc1OC1CC1 . Output bioavailability: 111%

Input Cc1cc(F)ccc1Oc1cc(C(F)(F)F)c(Br)cc1C(=O)Nc1cn[nH]c(=O)c1 . Output bioavailability: 99%

Input O=C(Nc1cn[nH]c(=O)c1)c1cc(Cl)c(C(F)(F)F)cc1Oc1ccc(F)cc1C1CC1 . Output bioavailability: 66%

Reference for the values: patent US20220073471A1
